Data credit: patent US20230235054A1

Measured pKd values are reported for all entries that follow.
Target: T1, huNectin4-His (human, UniProt Q96NY8 32-349)
T1 construct: Immobilized on the SPR chip; also called humanNectin4; human Nectin4; not shown: His tag
T1 sequence (looked up): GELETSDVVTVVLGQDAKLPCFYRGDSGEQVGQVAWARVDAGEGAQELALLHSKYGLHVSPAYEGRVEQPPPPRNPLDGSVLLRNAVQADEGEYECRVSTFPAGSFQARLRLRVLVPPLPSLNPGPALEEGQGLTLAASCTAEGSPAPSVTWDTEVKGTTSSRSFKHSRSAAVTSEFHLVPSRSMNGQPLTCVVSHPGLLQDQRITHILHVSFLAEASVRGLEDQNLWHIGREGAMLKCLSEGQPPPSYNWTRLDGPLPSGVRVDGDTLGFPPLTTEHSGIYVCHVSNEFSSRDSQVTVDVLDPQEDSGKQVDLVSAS
Experiment: SPR, huNectin4-His immobilized, pH 6.0
pKd: −log10 of the molar value.

>  <BINDER>
BAP-143-07-03-12 (antibody, V domains shown, Used as a conjugate with a linker payload (CAB ADC)) VH: EVQLVESGGGLVQPGGSLRLSCAASGFTFSSYNMNWVRQAPGKGLEWVSYISSSSSTIYYADSVKGRFTISRDNAKNSLSLQMNSLRDEDTAVYYCARAYYYGMDKWGQGTTVTVSS VL: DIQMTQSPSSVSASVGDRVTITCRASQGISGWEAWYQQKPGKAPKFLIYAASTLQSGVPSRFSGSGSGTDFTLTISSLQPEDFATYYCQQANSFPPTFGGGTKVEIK

>  <pKd>
9.16

$$$$
>  <BINDER>
BAP-143-06-24-16 (antibody, V domains shown, Used as a conjugate with a linker payload (CAB ADC)) VH: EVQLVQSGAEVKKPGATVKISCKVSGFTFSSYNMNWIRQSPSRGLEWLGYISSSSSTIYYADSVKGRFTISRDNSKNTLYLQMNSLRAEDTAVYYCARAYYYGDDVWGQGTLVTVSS VL: DIQMTQSPSSVSASVGDRVTITCHASQGISGWLAWYQQKPGKAPKFLIYAASTLQSGVPSRFSGSGSGTDFTLTISSLQPEDFATYYCQQANSFPPTFGGGTKVEIK

>  <pKd>
10.03

$$$$
